B1: Pistol ribozyme (parent)
chain: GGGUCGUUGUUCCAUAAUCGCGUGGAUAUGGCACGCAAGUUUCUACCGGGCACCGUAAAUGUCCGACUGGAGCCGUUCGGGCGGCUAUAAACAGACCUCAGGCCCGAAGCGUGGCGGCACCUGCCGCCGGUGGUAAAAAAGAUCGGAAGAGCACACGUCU

Variants of: B1
Assay: aptazyme ON/OFF ratio, guanine; higher = stronger switching; co-transcriptional cleavage with and without guanine
observed-property: aptazyme ON/OFF ratio
Enter a number only.

Example variants with recorded aptazyme ON/OFF ratio:
- variant-designation: "U7C U8G G9A U10A U11A C12U C13G"
  aptazyme ON/OFF ratio: 1.17
- variant-designation: "U7C U8G G9U U10C U11A C12G"
  aptazyme ON/OFF ratio: 1.26

Lab note: measured aptazyme ON/OFF ratio of U7C U8C U11C C12U C13U was 1.43

Lab note: measured aptazyme ON/OFF ratio of U7G U8G G9A U10C U11A C12G was 1.21

Lab note: measured aptazyme ON/OFF ratio of U8C G9C U10C U11A C12U was 1.02

Lab note: measured aptazyme ON/OFF ratio of U7A U8C U10A C13G was 1.01

Lab note: measured aptazyme ON/OFF ratio of U7C U8A G9A U10G U11C C12G C13A was 1.13

Lab note: measured aptazyme ON/OFF ratio of U8C G9U U10A U11C C12U C13A was 1.19

Lab note: measured aptazyme ON/OFF ratio of U7A U8C U10G U11A C13U was 1.09

Lab note: measured aptazyme ON/OFF ratio of U7G U8G G9A U10G U11A C13A was 1.11
